- System: Fibroblast
- Measurement Notes: Multiplex assay against human fibroblast
- Assay type: toxicity, cell-based
- Assay Context: 48 h, 10 µM, compound concentration 10 uM, replicate 1
Measurement Name: Population Healthy Nuclei (%)
Number in %, nothing else.

// query Population Healthy Nuclei (%) value for entry N[C@@]1(C(=O)O)CO[C@H]2[C@H](C(=O)O)[C@H]21
72

What does the data say about its Population Healthy Nuclei (%)? Entry: CCCn1c(=O)c2[nH]c(C3CCCC3)nc2n(CCC)c1=O
55

Request the reported Population Healthy Nuclei (%) associated with CC[C@H]1OC(=O)[C@H](C)[C@@H](O[C@H]2C[C@@](C)(OC)[C@@H](O)[C@H](C)O2)[C@H](C)[C@@H](O[C@@H]2O[C@H](C)C[C@H](N(C)C)[C@H]2O)[C@@]2(C)CC(C)=C(O2)[C@H](C)[C@@H](O)[C@]1(C)O
68

Entry O=C(NCCO)c1cccc(-c2cc(Nc3ccc(OC(F)(F)F)cc3)ncn2)c1 has what Population Healthy Nuclei (%)?
51

If you can, please state the reported Population Healthy Nuclei (%) value of Cc1ccc(C(C)(O)c2nc3ccccc3s2)c(C)c1 (stereo not drawn) .
68

Name the reported Population Healthy Nuclei (%) value associated with the compound CCNC1(C(N)=O)CCN(c2ncnc3c2nc(-c2ccccc2Cl)n3-c2ccc(Cl)cc2)CC1
61

What Population Healthy Nuclei (%) value was documented for this compound, CCCN1CCC[C@@H]2Cc3n[nH]cc3C[C@H]21.Cl [QUINPIROLE HYDROCHLORIDE] ?
65

Any idea what Population Healthy Nuclei (%) was measured for C[C@H](NC(=O)c1c(C(F)F)nn(C)c1Oc1cccc(C(F)(F)F)c1)c1ccc(C(=O)O)cc1 ?
60

---

- Tested on: Fibroblast
- Measurement Notes: Multiplex assay against human fibroblast
- Assay type: toxicity, cell-based
- Assay Context: 48 h, 1 µM, compound concentration 1 uM, replicate 1
Measurement Name: Population Apoptotic (%)
Answer in %, number only, no unit symbol.

Consider the compound shown here: CN1CCN(c2nc3cc(C(F)(F)F)ccc3n3cccc23)CC1.O=C(O)/C=C\C(=O)O.O=C(O)/C=C\C(=O)O What is its recorded Population Apoptotic (%)?
44

What measured Population Apoptotic (%) goes with CCCC(CCC)C(=O)O ?
55

Which Population Apoptotic (%) is reported for this compound? O=C(O)c1cc2ccccc2c(Cc2c(O)c(C(=O)O)cc3ccccc23)c1O
25

// returns reported Population Apoptotic (%) for input COc1cc(NC(=O)CCN2CCC(OC(=O)Nc3ccccc3-c3ccccc3)CC2)c(Cl)cc1CNC[C@H](O)c1ccc(O)c2[nH]c(=O)ccc12
62

Dear colleague, I am looking for the recorded Population Apoptotic (%) of the following compound: Cc1ccc(C(C)(O)c2nc3ccccc3s2)c(C)c1 (stereo not given)
33

What does the record list as Population Apoptotic (%) for CN(C)c1ccnc2sc3c(=O)n(N4CCCCCC4)cnc3c12 ?
64

What does the data say about its Population Apoptotic (%)? Entry: Cc1nc2ccc(Oc3ccc(F)cc3)cc2c(=O)n1C[C@H]1CCCN(C(C)C)C1.Cl
66

Endpoint output: Population Apoptotic (%) of CCOc1c2c(c(OCC)c3ncccc13)CN(c1ccc(CS(=O)(=O)NC(=O)Cc3ccccc3OC)cc1C)C2=O . Value?
57

Report Population Apoptotic (%) for Cc1ccccc1C(=O)Nc1ccc(C(=O)N2CCCC(N(C)C)c3ccccc32)cc1.Cl (stereo not given) please.
33

Query (compound): CNC[C@H](O)c1ccc(O)c(O)c1 [EPINEPHRINE] ; field requested: Population Apoptotic (%)
50

Could you share which Population Apoptotic (%) value was measured for O=C(O)Cc1ccccc1Nc1c(Cl)cccc1Cl ?
85

What does the data say about its Population Apoptotic (%)? Entry: N[C@@]1(C(=O)O)CO[C@H]2[C@H](C(=O)O)[C@H]21
76

// query Population Apoptotic (%) value for entry CCCN1CCC[C@@H]2Cc3n[nH]cc3C[C@H]21.Cl [QUINPIROLE HYDROCHLORIDE]
68

# get_value(readout='Population Apoptotic (%)', item= O=C(NCC(=O)N1CC[C@H](N[C@H]2CC[C@@](O)(c3ccc(-c4ncccn4)cn3)CC2)C1)c1cccc(C(F)(F)F)c1 )
58

# query: Population Apoptotic (%) of entry Cc1ccc(F)cc1C(=O)Nc1ccc(C(=O)N2Cc3cccn3Cc3ccccc32)c(Cl)c1
63

Item CN1CCN2c3ncccc3Cc3ccccc3C2C1 (stereo not given) has what recorded Population Apoptotic (%)?
60

What value of measured Population Apoptotic (%) is listed for c1cc(OCCCN2CCCCC2)ccc1CN1CCCCC1 ?
70

Consider the compound shown here: CC(=O)NCCc1c(Cc2ccccc2)[nH]c2ccccc12 What is its recorded Population Apoptotic (%)?
75

Which Population Apoptotic (%) is reported for this compound? CN(C)CCCc1cc(C(=O)Nc2ccc(-c3ccncc3)cc2)ccc1O.Cl.Cl
62

What does the record list as Population Apoptotic (%) for CSc1ccccc1N1CCN(CCCCCC(=O)NC2CCCc3ccccc32)CC1.Cl (stereo not given) ?
61

Entry under review: CC(C)(C)c1ccc(S(=O)(=O)Nc2ccc(Cl)cc2C(=O)c2cc[n+]([O-])cc2)cc1 . Reported Population Apoptotic (%)?
61

Which Population Apoptotic (%) is reported for this compound? CCNC1(C(N)=O)CCN(c2ncnc3c2nc(-c2ccccc2Cl)n3-c2ccc(Cl)cc2)CC1
68

What does the data say about its Population Apoptotic (%)? Entry: N#Cc1c(N)nc(SCc2csc(-c3ccc(Cl)cc3)n2)c(C#N)c1-c1ccc(OCCO)cc1
88

Need Population Apoptotic (%) of COc1ccc2c(c1)C(C(=O)N(Cc1ccc(N(C)C)cc1)c1ccc(C(C)C)cc1)CCC2.Cl (stereo not given) , thanks.
66

Returns the measured Population Apoptotic (%) for the input compound. Input: O=S(=O)(c1ccccc1)c1cnc2c(N3CCNCC3)cccc2c1 [INTEPIRDINE]
66

What value of Population Apoptotic (%) has been recorded for this entry: Cc1ccc(/C(=C\CN2CCCC2)c2ccccn2)cc1
54

# Population Apoptotic (%) lookup, item Cl.Clc1ccc2nsnc2c1NC1=NCCN1 [TIZANIDINE HYDROCHLORIDE]
47

Look at this compound and give its reported Population Apoptotic (%). COc1cc(C(=O)N(CCCc2ccccc2)Cc2ccc(CC(=O)O)cc2)cc(OC)c1C
90

# input compound: COc1c(C)cc(NC(=O)c2nn(Cc3ccc(F)cc3)c3c2CN(C(=O)c2ccc[nH]2)C[C@]3(C)C(N)=O)cc1C ; wanted: its Population Apoptotic (%)
87

I am curious: what Population Apoptotic (%) value has been reported for C[C@@H]1C[C@H]2[C@@H]3CCC4=CC(=O)C=C[C@]4(C)[C@@]3(F)[C@@H](O)C[C@]2(C)[C@@]1(O)C(=O)CO ?
46

Give its Population Apoptotic (%) value. Item: C[C@H](NC(=O)c1c(C(F)F)nn(C)c1Oc1cccc(C(F)(F)F)c1)c1ccc(C(=O)O)cc1
53

Value lookup for Population Apoptotic (%); key = Oc1c(CN2CCN(c3ccccn3)CC2)cc(Cl)c2cccnc12
54

Need Population Apoptotic (%), item CC[C@H]1OC(=O)[C@H](C)[C@@H](O[C@H]2C[C@@](C)(OC)[C@@H](O)[C@H](C)O2)[C@H](C)[C@@H](O[C@@H]2O[C@H](C)C[C@H](N(C)C)[C@H]2O)[C@@]2(C)CC(C)=C(O2)[C@H](C)[C@@H](O)[C@]1(C)O
55

Need Population Apoptotic (%) of CCCn1c(=O)c2[nH]c(C3CCCC3)nc2n(CCC)c1=O , thanks.
72

What measured Population Apoptotic (%) goes with O=C(NCCO)c1cccc(-c2cc(Nc3ccc(OC(F)(F)F)cc3)ncn2)c1 ?
82

---

- System: U2OS
- Measurement Notes: Multiplex assay against U2OS
- Assay type: toxicity, cell-based
- Assay Context: human, 48 h, 10 µM, compound concentration 10 uM, replicate 1
Measurement Name: Population Normal (%)
Your answer should be a plain number; it is taken to be in %.

Can you share its Population Normal (%)? I mean this molecule: COc1ccc2c(c1)C(C(=O)N(Cc1ccc(N(C)C)cc1)c1ccc(C(C)C)cc1)CCC2.Cl (stereo not given)
96

Endpoint output: Population Normal (%) of Cc1ccccc1C(=O)Nc1ccc(C(=O)N2CCCC(N(C)C)c3ccccc32)cc1.Cl (stereo not given) . Value?
91

Give its Population Normal (%) value. Item: CNC[C@H](O)c1ccc(O)c(O)c1 [EPINEPHRINE]
89

Returns the measured Population Normal (%) for the input molecule. Input: c1cc(OCCCN2CCCCC2)ccc1CN1CCCCC1 [JNJ-5207852]
97

If you can, please state the reported Population Normal (%) value of CN(C)CCCc1cc(C(=O)Nc2ccc(-c3ccncc3)cc2)ccc1O.Cl.Cl .
94

---

- Test system: HEK-293T
- Measurement Notes: Multiplex assay against HEK293T
- Format: toxicity, cell-based
- Assay Context: human, 24 h, 1 µM, compound concentration 1 uM, replicate 2
Measurement Name: Population Fragmented Nuclei (%)
Hi! Could you send only the number? It should be in %, unit omitted.

Could you share which Population Fragmented Nuclei (%) value was measured for N#Cc1c(N)nc(SCc2csc(-c3ccc(Cl)cc3)n2)c(C#N)c1-c1ccc(OCCO)cc1 ?
7

Need Population Fragmented Nuclei (%) of Cc1ccc(-c2ccc(F)cc2COc2ccc(CCC(=O)O)cc2)cc1 , thanks.
9

Given CC(=O)NCCc1c(Cc2ccccc2)[nH]c2ccccc12 , state its recorded Population Fragmented Nuclei (%).
7

Quick one: Population Fragmented Nuclei (%) for CN1CCN(c2nc3cc(C(F)(F)F)ccc3n3cccc23)CC1.O=C(O)/C=C\C(=O)O.O=C(O)/C=C\C(=O)O ?
6

Fill in: Population Fragmented Nuclei (%) of O=C(O)c1cc2ccccc2c(Cc2c(O)c(C(=O)O)cc3ccccc23)c1O is ___
5
